The molecules below have reported Ki for D(3) dopamine receptor (Homo sapiens, UniProt P35462).
Measured Parameter: Ki (µM)

- Compound Smiles: "Clc1ccc(N2CCCN(CCCc3nc4ccccc4s3)CC2)cc1"
  Result: 0.863
- Compound Smiles: "Fc1ccc(CCCCN2CCCN(c3ccc(Cl)cc3)CC2)cc1"
  Result: 3.04
- Compound Smiles: "O=C(CCCCN1CCCN(c2ccc(Cl)cc2)CC1)c1nc2ccccc2s1"
  Result: 1.05
